Protein target, amino acids: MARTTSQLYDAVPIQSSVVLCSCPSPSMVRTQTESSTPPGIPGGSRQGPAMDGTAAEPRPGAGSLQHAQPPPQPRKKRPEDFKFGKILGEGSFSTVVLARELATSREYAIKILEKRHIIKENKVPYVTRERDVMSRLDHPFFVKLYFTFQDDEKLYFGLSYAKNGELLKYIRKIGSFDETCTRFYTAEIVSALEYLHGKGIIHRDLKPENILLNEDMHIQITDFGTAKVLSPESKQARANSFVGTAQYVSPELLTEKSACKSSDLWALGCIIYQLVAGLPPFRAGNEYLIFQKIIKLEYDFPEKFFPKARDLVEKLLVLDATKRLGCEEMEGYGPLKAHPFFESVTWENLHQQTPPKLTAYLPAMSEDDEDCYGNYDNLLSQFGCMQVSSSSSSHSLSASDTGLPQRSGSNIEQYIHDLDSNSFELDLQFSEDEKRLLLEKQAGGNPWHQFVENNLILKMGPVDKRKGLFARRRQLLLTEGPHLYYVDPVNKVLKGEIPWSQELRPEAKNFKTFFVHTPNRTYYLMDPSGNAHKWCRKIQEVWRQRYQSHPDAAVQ
I'd be grateful if you could share measured Ki for these entries.

Reported Ki of NCCC(C(=O)Nc1ccc2[nH]nc(NC(=O)c3cc(C(F)(F)F)cc(C(F)(F)F)c3)c2c1)c1ccc(Cl)c(Cl)c1 (stereo not drawn) : > 3 µM

Reported Ki of NCCC(C(=O)Nc1ccc2[nH]nc(NC(=O)c3ccc(Br)cc3)c2c1)c1ccc(Cl)c(Cl)c1 (stereo not drawn) : < 1 µM

Reported Ki of COc1cccc(C(=O)Nc2n[nH]c3ccc(NC(=O)C(CCN)c4ccc(Cl)c(Cl)c4)cc23)c1 (stereo not drawn) : < 1 µM

Reported Ki of NCCC(C(=O)Nc1ccc2[nH]nc(NC(=O)c3cccc(F)c3)c2c1)c1ccc(Cl)c(Cl)c1 (stereo not drawn) : < 1 µM

Reported Ki of NCCC(C(=O)Nc1ccc2[nH]nc(NC(=O)c3ccc(Oc4ccccc4)cc3)c2c1)c1ccc(Cl)c(Cl)c1 (stereo not drawn) : 1 to 3 µM

Reported Ki of NCCC(C(=O)Nc1ccc2[nH]nc(CCc3ccccc3)c2c1)c1ccc(Cl)c(Cl)c1 (stereo not drawn) : < 1 µM

====

Target: AKT-3 (Homo sapiens)
Sequence (Q9Y243 whole entry): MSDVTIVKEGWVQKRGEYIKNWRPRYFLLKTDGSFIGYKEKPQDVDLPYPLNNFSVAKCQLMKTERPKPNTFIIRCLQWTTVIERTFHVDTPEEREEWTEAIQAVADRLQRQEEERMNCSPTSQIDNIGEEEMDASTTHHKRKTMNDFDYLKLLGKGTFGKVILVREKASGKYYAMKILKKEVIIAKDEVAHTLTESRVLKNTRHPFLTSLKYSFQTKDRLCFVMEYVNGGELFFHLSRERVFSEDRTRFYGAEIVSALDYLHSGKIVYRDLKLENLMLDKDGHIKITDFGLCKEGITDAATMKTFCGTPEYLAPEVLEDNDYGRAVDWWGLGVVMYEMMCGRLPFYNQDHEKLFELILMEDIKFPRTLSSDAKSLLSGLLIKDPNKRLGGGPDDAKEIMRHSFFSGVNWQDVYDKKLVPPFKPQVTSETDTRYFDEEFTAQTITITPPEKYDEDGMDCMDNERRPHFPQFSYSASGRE
Test: AKT-3 inhibition assay (standard coupled enzyme assay)
Format: biochemical
Details: 170 μM ATP, 200 μM peptide, 45 nM AKT, 30° C.
pKi: −log10 of the molar value.
I'd be grateful if you could share measured pKi for these entries.

Reported pKi of CCN(CC)Cc1cccc(C(=O)Nc2n[nH]c3ccc(NC(=O)C(CCN)c4ccc(Cl)c(Cl)c4)cc23)c1 (stereo not shown) [Compound I-216] : > 6.00

Reported pKi of O=C(Nc1ccc2[nH]ncc2c1)C(O)c1ccc(Cl)cc1 (stereo not shown) [Compound I-35] : 5.00 to 6.00

Reported pKi of C#Cc1n[nH]c2ccc(NC(=O)C(CCN)c3ccc(Cl)c(Cl)c3)cc12 (stereo not shown) [Compound I-124] : > 6.00

Reported pKi of C#Cc1cccc(C(=O)Nc2n[nH]c3ccc(NC(=O)C(CCN)c4ccc(Cl)c(Cl)c4)cc23)c1 (stereo not shown) [Compound I-205] : > 6.00

Reported pKi of NCCC(C(=O)Nc1ccc2[nH]nc(NC(=O)c3ccncc3)c2c1)c1ccc(Cl)c(Cl)c1 (stereo not shown) [Compound I-193] : > 6.00

Reported pKi of COC(=O)NCCC(C(=O)Nc1ccc2[nH]ncc2c1)c1ccc(Cl)c(Cl)c1 (stereo not shown) [Compound I-151] : 5.00 to 6.00

Reported pKi of CC(=O)Nc1cccc(C(CCN)C(=O)Nc2ccc3[nH]ncc3c2)c1 (stereo not shown) [Compound I-111] : 5.00 to 6.00

Reported pKi of O=C(Nc1ccc2[nH]ncc2c1)C(O)c1ccc(Br)cc1 (stereo not shown) [Compound I-37] : 4.70 to 5.00

Reported pKi of COc1c(C(CCN)C(=O)Nc2ccc3[nH]nc(C)c3c2)ccc(Cl)c1Cl (stereo not shown) [Compound I-130] : > 6.00

Reported pKi of O=C(Cc1cccc(C(F)(F)F)c1)Nc1ccc2[nH]ncc2c1 [Compound I-2] : 4.70 to 5.00

Reported pKi of NCCC(C(=O)Nc1ccc2[nH]nc(NC(=O)c3cccc([N+](=O)[O-])c3)c2c1)c1ccc(Cl)c(Cl)c1 (stereo not shown) [Compound I-208] : > 6.00

Reported pKi of N[C@@H](Cc1ccc(Cl)c(Cl)c1)C(=O)Nc1ccc2[nH]ncc2c1 [Compound I-95] : 4.70 to 5.00

Reported pKi of COc1ccc(C(NCCN)C(=O)Nc2ccc3[nH]ncc3c2)cc1Cl (stereo not shown) [Compound I-71] : 5.00 to 6.00
